Molecular target: T1, His-tagged CEACAM1 (human, UniProt P13688 35-428)
T1 construct: 45 kDa SPR analyte; also called CEACAM1-HIS; CEACAM1 analyte
T1 sequence: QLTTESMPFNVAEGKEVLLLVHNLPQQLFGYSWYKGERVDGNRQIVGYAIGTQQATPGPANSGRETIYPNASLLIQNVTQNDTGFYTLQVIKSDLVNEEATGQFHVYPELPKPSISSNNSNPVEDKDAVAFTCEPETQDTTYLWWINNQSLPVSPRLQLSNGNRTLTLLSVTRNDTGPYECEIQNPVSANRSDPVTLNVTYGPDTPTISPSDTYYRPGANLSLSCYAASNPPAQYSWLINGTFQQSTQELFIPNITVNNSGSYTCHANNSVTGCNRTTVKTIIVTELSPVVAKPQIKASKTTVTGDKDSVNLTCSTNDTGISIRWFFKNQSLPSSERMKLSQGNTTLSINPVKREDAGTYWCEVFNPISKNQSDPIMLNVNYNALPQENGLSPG
Test: SPR single-cycle, supernatant IgG captured
VALUE_TYPE: Kd (nM)
Express your answer in nM, writing the number without its unit.

Sample answers from the record:
| BINDER | VALUE_TYPE | EXPERIMENTAL_VALUE |
| --- | --- | --- |
| CP09E03/Vκ8 S29A (antibody, IgG4, V domains shown, IgG4 (S241P), kappa) VH: EVQLLESGGGLVQPGGSLRLSCAASGFTFSAHAISWVRQAPGKGLEWVATISSGGTYTYYPDSVKGRFTISRDNSKNTLYLQMNSLKAEDTAMYYCARHDFDYDAAWFAYWGQGTLVTVSS VL: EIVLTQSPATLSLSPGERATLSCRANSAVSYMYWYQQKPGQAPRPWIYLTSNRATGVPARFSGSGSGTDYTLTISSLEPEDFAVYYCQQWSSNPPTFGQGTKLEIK | Kd | 400 |
| CP08A08/Vκ8 S29A (antibody, IgG4, V domains shown, IgG4 (S241P), kappa) VH: EVQLLESGGGLVQPGGSLRLSCAASGFIFTNHGMSWVRQAPGKGLEWVATISSGGTYTYYPDSVKGRFTISRDNSKNTLYLQMNSLKAEDTAMYYCARHDFDYDAAWFAYWGQGTLVTVSS VL: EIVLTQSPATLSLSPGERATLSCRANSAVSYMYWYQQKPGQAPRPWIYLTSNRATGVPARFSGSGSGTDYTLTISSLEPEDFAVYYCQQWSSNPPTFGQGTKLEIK | Kd | 1300 |
| VH1/CP08E01 (antibody, IgG4, V domains shown, IgG4 (S241P), kappa; also called Parent VH/CP08E01) VH: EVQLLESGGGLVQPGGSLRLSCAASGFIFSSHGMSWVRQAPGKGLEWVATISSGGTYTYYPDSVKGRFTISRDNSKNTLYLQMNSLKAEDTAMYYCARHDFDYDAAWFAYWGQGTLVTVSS VL: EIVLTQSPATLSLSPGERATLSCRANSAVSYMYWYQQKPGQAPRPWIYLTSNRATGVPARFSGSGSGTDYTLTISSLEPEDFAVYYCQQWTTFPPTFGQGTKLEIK | Kd | 170 |
| VH1/CP09F05 (antibody, IgG4, V domains shown, IgG4 (S241P), kappa) VH: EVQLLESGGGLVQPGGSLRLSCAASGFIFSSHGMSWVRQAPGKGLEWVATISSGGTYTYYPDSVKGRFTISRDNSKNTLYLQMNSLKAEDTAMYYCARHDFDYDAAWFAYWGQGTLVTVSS VL: EIVLTQSPATLSLSPGERATLSCRANSAVSYMYWYQQKPGQAPRPWIYLTSNRATGVPARFSGSGSGTDYTLTISSLEPEDFAVYYCQQNTALPFTFGQGTKLEIK | Kd | 1600 |
| CP08B03/Vκ8 S29A (antibody, IgG4, V domains shown, IgG4 (S241P), kappa) VH: EVQLLESGGGLVQPGGSLRLSCAASGFTFTAHAISWVRQAPGKGLEWVATISSGGTYTYYPDSVKGRFTISRDNSKNTLYLQMNSLKAEDTAMYYCARHDFDYDAAWFAYWGQGTLVTVSS VL: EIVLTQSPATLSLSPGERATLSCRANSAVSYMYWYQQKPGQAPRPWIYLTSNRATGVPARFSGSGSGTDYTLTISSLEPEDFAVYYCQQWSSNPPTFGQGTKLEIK | Kd | 360 |
| CP08D11/Vκ8 S29A (antibody, IgG4, V domains shown, IgG4 (S241P), kappa) VH: EVQLLESGGGLVQPGGSLRLSCAASGYSFSAHGMSWVRQAPGKGLEWVATISSGGTYTYYPDSVKGRFTISRDNSKNTLYLQMNSLKAEDTAMYYCARHDFDYDAAWFAYWGQGTLVTVSS VL: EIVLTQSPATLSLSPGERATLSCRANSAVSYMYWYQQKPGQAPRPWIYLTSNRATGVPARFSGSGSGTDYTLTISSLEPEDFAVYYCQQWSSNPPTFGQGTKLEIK | Kd | 2000 |

Q: Name the reported Kd value associated with the binder CP08H03/Vκ8 S29A (antibody, IgG4, V domains shown, IgG4 (S241P), kappa; also called CP08_H03/Parent VL; CP08_H03/Parental) VH: EVQLLESGGGLVQPGGSLRLSCAASGFIFSSHGMSWVRQAPGKGLEWVATISSGGTYTYYPDSVKGRFTISRDNSKNTLYLQMNSLKAEDTAMYYCARHDFDYFPYWFAHWGQGTLVTVSS VL: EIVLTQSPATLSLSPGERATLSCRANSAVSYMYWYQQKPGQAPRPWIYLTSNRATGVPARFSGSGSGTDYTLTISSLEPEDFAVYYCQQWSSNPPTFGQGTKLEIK
A: 45

Q: Consider the binder VH1/CP08E05 (antibody, IgG4, V domains shown, IgG4 (S241P), kappa; also called Parent VH/CP08E05) VH: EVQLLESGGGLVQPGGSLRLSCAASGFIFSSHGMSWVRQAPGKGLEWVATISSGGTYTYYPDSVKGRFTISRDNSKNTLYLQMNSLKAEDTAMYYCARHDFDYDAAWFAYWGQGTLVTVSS VL: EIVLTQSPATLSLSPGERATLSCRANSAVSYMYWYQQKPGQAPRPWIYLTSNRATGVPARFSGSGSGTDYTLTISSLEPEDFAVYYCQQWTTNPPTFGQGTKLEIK and give its measured Kd.
A: 140

Q: # input binder: CP08G10/Vκ8 S29A (antibody, IgG4, V domains shown, IgG4 (S241P), kappa) VH: EVQLLESGGGLVQPGGSLRLSCAASGFIFSSHGMSWVRQAPGKGLEWVATISSGGTYTYYPDSVKGRFTISRDNSKNTLYLQMNSLKAEDTAMYYCARHDFDYFPAWFAFWGQGTLVTVSS VL: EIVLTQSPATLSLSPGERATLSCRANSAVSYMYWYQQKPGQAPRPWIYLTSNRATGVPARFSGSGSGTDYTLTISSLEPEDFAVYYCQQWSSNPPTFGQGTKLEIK ; wanted: its Kd
A: 630

Q: Request the reported Kd associated with VH1/CP08F05 (antibody, IgG4, V domains shown, IgG4 (S241P), kappa; also called Parent VH/CP08F05) VH: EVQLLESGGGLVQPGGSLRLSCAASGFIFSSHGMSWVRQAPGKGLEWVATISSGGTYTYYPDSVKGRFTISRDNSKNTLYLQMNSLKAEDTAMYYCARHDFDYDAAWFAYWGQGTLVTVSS VL: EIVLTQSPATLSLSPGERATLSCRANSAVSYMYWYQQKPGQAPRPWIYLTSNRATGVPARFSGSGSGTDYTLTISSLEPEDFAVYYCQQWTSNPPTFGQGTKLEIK
A: 280
